Data origin: paper PMC8920097

- Test details: Phospholipid binding at pH 7.4 on IAM PC.DD2 HPLC column
- Assay type: physicochemical
- Details: pH 7.4, derived from CHI IAM by equation 1
Kindly supply the reported log k IAM values for the records listed here.
Give bare numbers.

// below: answered molecules
Smiles representation: COc1ccc(CN(CCN(C)C)c2ccccn2)cc1
log k IAM: 2.56
//
Smiles representation: CCOc1ccccc1OCCN[C@H](C)Cc1ccc(OC)c(S(N)(=O)=O)c1
log k IAM: 2.00
//
Smiles representation: CC[C@H]1OC(=O)[C@H](C)[C@@H](O[C@H]2C[C@@](C)(OC)[C@@H](O)[C@H](C)O2)[C@H](C)[C@@H](O[C@@H]2O[C@H](C)C[C@H](N(C)C)[C@H]2O)[C@](C)(O)C[C@@H](C)/C(=N\OCOCCOC)[C@H](C)[C@@H](O)[C@]1(C)O
log k IAM: 2.78

Pending molecule:
Looking for the measured log k IAM of "O=C1Cc2cc(CCN3CCN(c4nsc5ccccc45)CC3)c(Cl)cc2N1" , can you help?
2.62

* * *

- Test details: Phospholipid binding at pH 7.4 on IAM PC.DD2 HPLC column
- Assay type: physicochemical
- Details: pH 7.4, derived from CHI IAM by equation 1
Kindly supply the reported log k IAM values for the records listed here.
Answers are plain numbers.

// below: answered molecules
Molecule: CCCCN1CCCC[C@H]1C(=O)Nc1c(C)cccc1C
log k IAM: 2.34
--
Molecule: CCN(CC)CC(=O)Nc1c(C)cccc1C
log k IAM: 1.91
--
Molecule: O=c1n(CCCN2CCN(c3cccc(Cl)c3)CC2)nc2ccccn12
log k IAM: 1.93

Could you report log k IAM for every entry in the following list?
1. COc1ccc2c(c1)c(CC(=O)O)c(C)n2C(=O)c1ccc(Cl)cc1
2. COc1ccc([C@@H]2Sc3ccccc3N(CCN(C)C)C(=O)[C@@H]2OC(C)=O)cc1
3. COc1cc2nc(N3CCN(C(=O)C4COc5ccccc5O4)CC3)nc(N)c2cc1OC (stereo not drawn)
4. CN(C)CCC=C1c2ccccc2CCc2ccccc21
5. O=c1[nH]c2ccccc2n1C1CCN(CCCC(c2ccc(F)cc2)c2ccc(F)cc2)CC1 [Pimozide]
6. Cc1cc(NS(=O)(=O)c2ccc(N)cc2)no1

1: 1.81; 2: 2.35; 3: 2.16; 4: 2.96; 5: 2.83; 6: 1.01

* * *

- Test details: Charge character of the drugs at pH 7.4
- Assay type: physicochemical
Observed property: Charge

Compound: COc1ccc(CN(CCN(C)C)c2ccccn2)cc1
Charge: Basic

Compound: COCC(=O)O[C@]1(CCN(C)CCCc2nc3ccccc3[nH]2)CCc2cc(F)ccc2[C@@H]1C(C)C
Charge: Basic

Compound: COC(=O)C1=C(C)NC(C)=C(C(=O)OC(C)C)C1c1cccc2nonc12 (centres unmarked)
Charge: Neutral

Compound: CC(=O)S[C@@H]1CC2=CC(=O)CC[C@]2(C)[C@H]2CC[C@@]3(C)[C@@H](CC[C@@]34CCC(=O)O4)[C@H]12
Charge: Neutral

Compound: Clc1ccc(COC(Cn2ccnc2)c2ccc(Cl)cc2Cl)c(Cl)c1 (centres unmarked)
Charge: Weak Base

Compound: CC(C)NCC(O)COc1ccc(CC(N)=O)cc1 (centres unmarked)
Charge: Basic

Looking for the measured Charge of "CCOC(=O)N1CCC(=C2c3ccc(Cl)cc3CCc3cccnc32)CC1" , can you help?
Weak Base
